Parameter: inhibition at 2 µM. Scope: all listed entries.
Molecular target: AKR1C1 (Homo sapiens)
Sequence (Q04828 whole entry, the tested form may be a part): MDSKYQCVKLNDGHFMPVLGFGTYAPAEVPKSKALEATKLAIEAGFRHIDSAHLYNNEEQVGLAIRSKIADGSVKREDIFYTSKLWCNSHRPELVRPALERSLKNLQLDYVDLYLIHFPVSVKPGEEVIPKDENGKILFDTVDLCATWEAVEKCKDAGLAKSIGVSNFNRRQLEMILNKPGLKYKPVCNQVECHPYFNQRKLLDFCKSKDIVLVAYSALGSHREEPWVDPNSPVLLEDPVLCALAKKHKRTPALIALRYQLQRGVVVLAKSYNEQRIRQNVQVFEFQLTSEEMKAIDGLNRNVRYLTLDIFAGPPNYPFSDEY
Assay: Enzyme activity (NADPH) assay with s-tetralol, recombinant GST-AKR1C1;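 further: GST-fused AKR1C1 expressed in E. coli and purified by glutathione affinity, control wells received DMSO instead of compound, duplicate samples from a single experiment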
Assay type: biochemical
Parameters: made in house; host or cells: Escherichia coli JM109
Settings: 2 μM compound; Supplementary Table 1; read-out: % inhibition

structure smiles string	inhibition at 2 µM
COc1cc2c(c(OC)c1OC)-c1c(cc3c(c1OC)OCO3)C[C@H](C)[C@@](C)(O)C2	-12.2%

Lookup result for `COc1cc2c(c(OC)c1OC)-c1c(cc(OC)c(OC)c1OC)C[C@H](C)[C@H](C)C2` ; measured inhibition at 2 µM: -8.81%

Lookup result for `COc1ccc(-c2cc(=O)c3c(OC)c(OC)c(OC)c(OC)c3o2)cc1OC` ; measured inhibition at 2 µM: -4.07%

Lookup result for `COc1ccc2c(c1)CC=C(CO)c1cc3c(cc1-2)OCO3` ; measured inhibition at 2 µM: 40.9%
